target: hNLRP3 (Homo sapiens, UniProt Q96P20); construct: THP-1 cells were purchased from the American Type Culture Collection; host or cells: THP-1 cells, PMA-differentiated; assay: hNLRP3 agonist assay: IL-1β production in PMA-differentiated THP-1 cells (ELISA); format: cell-based; settings: Table 2, 4 hours, IL-1β by ELISA
Sequence (Q96P20 whole entry): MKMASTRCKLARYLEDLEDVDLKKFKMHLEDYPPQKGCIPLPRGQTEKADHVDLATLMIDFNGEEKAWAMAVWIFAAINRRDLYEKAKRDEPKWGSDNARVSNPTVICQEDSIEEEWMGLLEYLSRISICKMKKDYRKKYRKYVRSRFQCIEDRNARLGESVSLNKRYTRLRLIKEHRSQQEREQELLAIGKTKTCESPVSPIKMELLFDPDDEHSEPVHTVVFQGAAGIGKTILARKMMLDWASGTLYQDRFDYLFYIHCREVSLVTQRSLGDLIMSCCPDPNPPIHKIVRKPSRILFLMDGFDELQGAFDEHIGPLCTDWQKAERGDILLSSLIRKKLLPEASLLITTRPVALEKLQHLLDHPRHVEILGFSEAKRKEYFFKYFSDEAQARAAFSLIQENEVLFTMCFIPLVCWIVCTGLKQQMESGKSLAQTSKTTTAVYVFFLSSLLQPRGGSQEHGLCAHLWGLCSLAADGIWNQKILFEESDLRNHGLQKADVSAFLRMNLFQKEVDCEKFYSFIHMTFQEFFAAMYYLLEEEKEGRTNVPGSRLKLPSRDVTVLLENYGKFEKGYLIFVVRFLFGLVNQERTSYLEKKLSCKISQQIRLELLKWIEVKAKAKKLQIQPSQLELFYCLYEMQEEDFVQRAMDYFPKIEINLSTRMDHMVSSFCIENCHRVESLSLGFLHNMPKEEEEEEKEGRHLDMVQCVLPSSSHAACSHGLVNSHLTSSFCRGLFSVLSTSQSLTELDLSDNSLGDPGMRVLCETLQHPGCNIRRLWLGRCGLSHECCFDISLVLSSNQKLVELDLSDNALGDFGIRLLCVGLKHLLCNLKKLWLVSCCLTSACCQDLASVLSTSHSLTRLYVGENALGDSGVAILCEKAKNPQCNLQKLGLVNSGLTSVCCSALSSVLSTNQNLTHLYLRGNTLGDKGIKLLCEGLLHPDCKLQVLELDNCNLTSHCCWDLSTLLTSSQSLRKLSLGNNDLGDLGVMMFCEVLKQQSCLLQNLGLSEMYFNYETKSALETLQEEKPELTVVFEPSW
Measured EC50 accompanies every entry in the list below.

# molecule, tested-on, EC50
measured = [
    ("Nc1nc2cc(-c3cccs3)ccc2c2[nH]c(CCCOCc3ccccc3)nc12", "hNLRP3 (Homo sapiens, UniProt Q96P20)", "1 to 20 µM"),
    ("Nc1nc2cc(-c3cncnc3)ccc2c2[nH]c(CCCO)nc12", "hNLRP3 (Homo sapiens, UniProt Q96P20)", "20 to 100 µM"),
    ("Nc1nc2ccccc2c2[nH]c([C@H]3C[C@H](O)C3)nc12", "hNLRP3 (Homo sapiens, UniProt Q96P20)", "20 to 100 µM"),
    ("Nc1nc2cc(Br)ccc2c2[nH]c(C3CCN(S(=O)(=O)c4ccccc4)CC3)nc12", "hNLRP3 (Homo sapiens, UniProt Q96P20)", "1 to 20 µM"),
    ("Nc1nc2cc(-c3cccnc3F)ccc2c2[nH]c(CCCOCc3ccccc3)nc12", "hNLRP3 (Homo sapiens, UniProt Q96P20)", "> 100 µM"),
    ("Nc1nc2cc(-c3ccncc3)ccc2c2[nH]c(CCCOCc3ccccc3)nc12", "hNLRP3 (Homo sapiens, UniProt Q96P20)", "20 to 100 µM"),
    ("Nc1nc2cc(-c3cnoc3)ccc2c2[nH]c(CCCO)nc12", "hNLRP3 (Homo sapiens, UniProt Q96P20)", "> 100 µM"),
    ("Nc1nc2cc(Br)ccc2c2[nH]c(C3CCC(N)CC3)nc12 (stereo not drawn)", "hNLRP3 (Homo sapiens, UniProt Q96P20)", "20 to 100 µM"),
]

// lookup EC50 for Nc1nc2cc(-n3ccnc3)ccc2c2[nH]c(CCCO)nc12
> 100 µM

Tell me the measured EC50 of Nc1nc2cc(C3CCCCC3)ccc2c2[nH]c(CCCO)nc12 , please.
20 to 100 µM

Requested read-out: EC50. Entry: Cc1cnn(-c2ccc3c(c2)nc(N)c2nc(CCCO)[nH]c23)c1
1 to 20 µM

I'd like to know its EC50. The molecule in question is Nc1nc2cc(-c3ccc[nH]c3=O)ccc2c2[nH]c(CCCOCc3ccccc3)nc12
1 to 20 µM

Which value of EC50 has been reported for COc1cccc(-c2ccc3c(c2)nc(N)c2nc(CCCO)[nH]c23)c1 in the records?
> 100 µM

Would you mind telling me what EC50 value was observed for Cn1c(CCCO)nc2c(N)nc3ccccc3c21 ?
20 to 100 µM

What does the data say about its EC50? Entry: Nc1nc2ccccc2c2[nH]c(C3CCNCC3)nc12
20 to 100 µM

Please give the measured EC50 for this molecule: Nc1nc2cc(-c3ccc(Cl)cc3)ccc2c2[nH]c(CCCO)nc12
> 100 µM

For Cc1cccc(-c2ccc3c(c2)nc(N)c2nc(CCCO)[nH]c23)c1 , what is its reported EC50?
20 to 100 µM

Report EC50 for CN1CCC[C@@H](c2nc3c(N)nc4ccccc4c3[nH]2)C1 please.
20 to 100 µM

* * *

target: hNLRP3 (Homo sapiens, UniProt Q96P20); construct: THP-1 cells were purchased from the American Type Culture Collection; host or cells: THP-1 cells, PMA-differentiated; test: hNLRP3 agonist assay: IL-1β production in PMA-differentiated THP-1 cells (ELISA); format: cell-based; conditions: Table 2, 4 hours, IL-1β by ELISA
quantity-name: EC50

# molecule, EC50
measured = [
    ("CN1CCC[C@H](c2nc3c(N)nc4ccccc4c3[nH]2)C1 [Compound 138]", "20 to 100 µM"),
    ("CCN(C(=O)OC(C)(C)C)C(C)(C)c1nc2c(N)nc3cc(-c4cc[nH]n4)ccc3c2n1Cc1ccc(OC)cc1 [Compound 252]", "1 to 20 µM"),
    ("Nc1nc2ccccc2c2[nH]c([C@H]3CC[C@@H](O)CC3)nc12 [Compound 134]", "20 to 100 µM"),
    ("Nc1nc2cc(-c3cccnc3F)ccc2c2[nH]c(CCCO)nc12 [Compound 158]", "1 to 20 µM"),
]

# lookup: EC50 of Cn1c(CCCO)nc2c(N)nc3cc(-c4cc[nH]n4)ccc3c21 [Compound 107]
≤ 1 µM

Need EC50, item Nc1nc2ccccc2c2[nH]c([C@H]3CC[C@H](O)CC3)nc12 [Compound 135]
20 to 100 µM

Using the record for Nc1nc2cc(CC(=O)O)ccc2c2[nH]c(CCCO)nc12 [Compound 121] , report its EC50.
1 to 20 µM

May I ask what EC50 has been recorded for COC(=O)CCCn1c(CCCO)nc2c(N)nc3cc(Br)ccc3c21 [Compound 141] ?
1 to 20 µM

Form field: reported EC50 of COc1ccncc1-c1ccc2c(c1)nc(N)c1nc(CCCO)[nH]c12 [Compound 171]
> 100 µM

Entry under review: Nc1nc2ccccc2c2[nH]c(C3COC3)nc12 [Compound 129] . Reported EC50?
20 to 100 µM

So what's the measured EC50 for this one? CN(C)c1nc(-c2ccc3c(c2)nc(N)c2nc(CCCO)[nH]c23)cs1 [Compound 177]
> 100 µM

* * *

target: hNLRP3 (Homo sapiens); construct: THP-1 cells were purchased from the American Type Culture Collection; host or cells: THP-1 cells, PMA-differentiated; assay: hNLRP3 agonist assay: IL-1β production in PMA-differentiated THP-1 cells (ELISA); format: cell-based; conditions: Table 2, 4 hours, IL-1β by ELISA
quantity-name: EC50

Solved entries (count: 3):
# compound, tested-on, EC50
measured = [
    ("Cc1ccc(-c2ccc3c(c2)nc(N)c2nc(CCCO)[nH]c23)cn1", "hNLRP3 (Homo sapiens)", "> 100 µM"),
    ("Nc1nc2cc(C3CCNC3)ccc2c2[nH]c(CCCO)nc12 (stereo not shown)", "hNLRP3 (Homo sapiens)", "> 100 µM"),
    ("Nc1nc2cc(-c3cccc(F)c3)ccc2c2[nH]c(CCCO)nc12", "hNLRP3 (Homo sapiens)", "> 100 µM"),
]

I'm curious: which EC50 was measured for Cc1cc(-c2ccc3c(c2)nc(N)c2nc(CCCOCc4ccccc4)[nH]c23)n(C)n1 tested on hNLRP3 (Homo sapiens)?
> 100 µM
